assayed-system: GDP-bound KRAS wild-type protein (Homo sapiens)
Sequence (P01116 whole entry): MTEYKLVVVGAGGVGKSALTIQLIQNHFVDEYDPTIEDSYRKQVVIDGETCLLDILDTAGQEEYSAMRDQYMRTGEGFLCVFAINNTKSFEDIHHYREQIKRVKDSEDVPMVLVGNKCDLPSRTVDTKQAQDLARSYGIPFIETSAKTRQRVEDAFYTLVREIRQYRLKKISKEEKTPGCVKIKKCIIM
test-protocol: Binding to KRAS by surface plasmon resonance (SPR), Single Cycle Kinetics
test-conditions: SPR Single Cycle Kinetics, GDP-bound KRAS wild-type protein, 1:1 binding model; read-out: KRAS KD
Where a SMILES comes first, the peptide text is derived from it. Bridges are numbered along the chain shown (N, C = ends). [ ]: non-standard residue; d: D form. The star is where a group is joined. hPhe(3-Cl-4-CF3) = N[C@@H](CCc1ccc(C(F)(F)F)c(Cl)c1)C(=O)O; NPrPhe(4-CF3) = CCCN[C@@H](Cc1ccc(C(F)(F)F)cc1)C(=O)O; NMeGly(cPent) = CN[C@H](C(=O)O)C1CCCC1; NMeD = CN[C@@H](CC(=O)O)C(=O)O; NMeL = CN[C@@H](CC(C)C)C(=O)O; Morpholide = C1CN(*)CCO1; Ac5c = NC1(C(=O)O)CCCC1; NEtG = CCNCC(=O)O; Sar = CNCC(=O)O
Below, each entry is listed with its recorded pKd.
Recall that pKd is obtained by taking minus log10 of the concentration measured in molar.

CCC[C@H]1C(=O)N[C@@H]([C@@H](C)CC)C(=O)N(C2CC2)CC(=O)N(C)[C@H]2C/C=C\CCN(C2=O)[C@@H](Cc2ccc(C)cc2)C(=O)N(C)CC(=O)N[C@@H](CCc2ccc(Cl)c(Cl)c2)C(=O)N2C[C@H](OCC)C[C@H]2C(=O)NC2(CC(C)(C)C2)C(=O)N(C)[C@@H](CC(C)(C)C)C(=O)N(C)[C@H](C(=O)N(C)C)CC(=O)N1C [PP2726]    8.96

Query: GDP-bound KRAS wild-type protein (Homo sapiens) / pKd / CCCN1C(=O)CN(C)C(=O)CN(CC)C(=O)[C@H]([C@@H](C)CC)NC(=O)[C@H](CC(C)C)N(C)C(=O)C[C@@H](C(=O)N2CCOCC2)N(C)C(=O)[C@H](C2CCCC2)N(C)C(=O)C2(CCCC2)NC(=O)[C@@H]2CCCN2C(=O)[C@H](CCc2ccc(C(F)(F)F)c(Cl)c2)NC(=O)CN(C)C(=O)[C@@H]1Cc1ccc(C(F)(F)F)cc1 [PP0145] ([NMeL]I[NEtG][Sar][NPrPhe(4-CF3)][Sar][hPhe(3-Cl-4-CF3)]P[Ac5c][NMeGly(cPent)][NMeD]-Morpholide; lactam N-11) : value?
Reply: 9.30

Query: Also need CCO[C@@H]1C[C@H]2C(=O)NC3(CCC3)C(=O)N(C)[C@@H](C3CCCC3)C(=O)N(C)[C@H](C(=O)N3CCOCC3)CC(=O)N(C)[C@@H](CC3CC3)C(=O)N[C@@H]([C@@H](C)CC)C(=O)N(C)CC(=O)N(C)[C@H]3CCCCN(C3=O)[C@@H](Cc3ccc(C(F)(F)F)cc3)C(=O)N(C)CC(=O)N[C@@H](CCc3cc(F)c(C(F)(F)F)c(F)c3)C(=O)N2C1 [PP0712] , thanks.
Reply: 10.38

The reported measurements were obtained from patent US20240158446A1.
